Values were extracted from ChEMBL document CHEMBL6092154.

Reported inhibition values for the following compounds.
target under test: Protein deacetylase HDAC6 (Homo sapiens) (UniProt Q9UBN7)
Sequence (whole entry): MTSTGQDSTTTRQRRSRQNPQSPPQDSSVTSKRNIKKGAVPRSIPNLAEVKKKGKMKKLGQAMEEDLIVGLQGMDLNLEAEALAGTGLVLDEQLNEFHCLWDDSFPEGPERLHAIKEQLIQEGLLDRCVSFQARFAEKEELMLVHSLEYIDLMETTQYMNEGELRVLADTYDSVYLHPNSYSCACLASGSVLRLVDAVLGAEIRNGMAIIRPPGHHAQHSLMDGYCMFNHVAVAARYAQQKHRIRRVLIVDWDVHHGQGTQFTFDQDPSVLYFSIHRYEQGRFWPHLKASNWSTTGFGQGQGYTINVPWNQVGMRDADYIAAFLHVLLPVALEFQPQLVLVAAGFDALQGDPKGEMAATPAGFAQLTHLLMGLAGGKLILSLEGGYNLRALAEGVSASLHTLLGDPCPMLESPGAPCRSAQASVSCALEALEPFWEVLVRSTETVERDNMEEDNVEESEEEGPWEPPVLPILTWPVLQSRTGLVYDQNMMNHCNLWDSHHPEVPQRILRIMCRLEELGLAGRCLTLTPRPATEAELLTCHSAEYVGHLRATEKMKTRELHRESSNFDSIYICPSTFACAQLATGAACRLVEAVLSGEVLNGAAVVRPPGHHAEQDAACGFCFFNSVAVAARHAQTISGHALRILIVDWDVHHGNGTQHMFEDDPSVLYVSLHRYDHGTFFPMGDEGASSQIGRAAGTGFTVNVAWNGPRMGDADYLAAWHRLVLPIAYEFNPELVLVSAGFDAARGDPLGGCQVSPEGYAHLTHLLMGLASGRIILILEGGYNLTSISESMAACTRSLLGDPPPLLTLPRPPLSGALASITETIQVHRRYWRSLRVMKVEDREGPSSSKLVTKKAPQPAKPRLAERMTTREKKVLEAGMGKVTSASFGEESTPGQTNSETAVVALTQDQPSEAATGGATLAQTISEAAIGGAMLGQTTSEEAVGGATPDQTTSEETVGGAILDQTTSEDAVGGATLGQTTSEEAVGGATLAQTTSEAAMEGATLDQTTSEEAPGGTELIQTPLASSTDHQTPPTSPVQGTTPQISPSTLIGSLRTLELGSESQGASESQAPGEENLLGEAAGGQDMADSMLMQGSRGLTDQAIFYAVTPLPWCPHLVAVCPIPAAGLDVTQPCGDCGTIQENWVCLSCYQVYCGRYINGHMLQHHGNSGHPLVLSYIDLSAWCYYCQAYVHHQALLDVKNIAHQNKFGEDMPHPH
protocol: Inhibition of HDAC6 (unknown origin) at 1 uM incubated for 30 mins by fluorometric analysis
reported endpoint: inhibition (%)

                           molecular_string  experimental_result
0  O=C(NO)c1ccc(CN2C(=O)C3=C(CCN(Cc4cccnc4)C3)N3CCN=C23)cc1                 95.1
1  Cc1cccc(CN2CCC3=C(C2)C(=O)N(Cc2ccc(C(=O)NO)cc2)C2=NCCN23)c1                 93.8
2  O=C(NO)c1ccc(CN2C(=O)C3=C(CCN(Cc4cccc(C(F)(F)F)c4Cl)C3)N3CCN=C23)cc1                 94.1
3  O=C(NO)c1ccc(CN2C(=O)C3=C(CCN(Cc4cccc(F)c4)C3)N3CCN=C23)cc1                 97.1
4  O=C(NO)c1ccc(CN2C(=O)C3=C(CCN(Cc4cccc(Cl)c4)C3)N3CCN=C23)cc1                 94.8
5  COc1cccc(CN2CCC3=C(C2)C(=O)N(Cc2ccc(C(=O)NO)cc2)C2=NCCN23)c1                 95.4
6  O=C(NO)c1ccc(CN2C(=O)C3=C(CCN(Cc4ccccc4)C3)N3CCN=C23)cc1                 97.2
7  O=C(NO)c1ccc(CN2C(=O)C3=C(CCN(Cc4cccc(Br)c4)C3)N3CCN=C23)cc1                 93.6
8  O=C(NO)c1ccc(CN2C(=O)C3=C(CCN(Cc4ccc(Cl)c(C(F)(F)F)c4)C3)N3CCN=C23)cc1                 96.2
